Values from patent US12509460B2

test system: mHTT protein in GM04724 (CAG 70/20) Huntington's disease patient lymphoblast cells; test: mHTT protein assay, 2B7-MW1 assay via Mesoscale Discovery (MSD); format: cell-based, human; conditions: GM04724 Huntington's disease patient lymphoblasts
pEC50: −log10 of the molar value.
Documented pEC50 across a set of compounds

COMPOUND	pEC50
Cc1ccc(-c2ccc(-c3ccc(N(C)[C@H]4C[C@@H]5CC[C@@H](N5)[C@H]4F)nn3)c(O)c2)nn1 (single isomer, unassigned) [Compound 25B]	7.30 to 7.80
CN(c1ccc(-c2ccc(-n3cnc(C#N)c3)cc2O)nn1)[C@@H]1C[C@H]2CCC[C@H](N2)[C@@H]1F [Compound 63A]	7.00 to 7.29

Problem: # lookup: pEC50 of CN(c1ccc(-c2cc(F)c(-n3ccnn3)cc2O)nn1)[C@H]1C[C@@H]2CC[C@@H](N2)[C@H]1F [Compound 52B]
Result: 7.82 to 11.00

Problem: # lookup: pEC50 of COc1cc(-c2ccc(-c3ccc(N(C)[C@H]4CC5N[C@@H](C4)CC5(F)F)nn3)c(O)c2)cnn1 (single isomer, unassigned) [Compound 2A]
Result: 7.30 to 7.80

Problem: # lookup: pEC50 of CN(c1ccc(-c2cc3c(=O)n(C)ccc3s2)nn1)[C@H]1C[C@@H]2CC[C@@H](N2)[C@H]1F (single isomer, unassigned) [Compound 68B]
Result: 6.30 to 7.00

Problem: # lookup: pEC50 of CN(c1ccc(-c2ccc(-c3cnn(C(F)F)c3)cc2O)nn1)[C@@H]1C[C@H]2CC[C@H](N2)[C@@H]1F [Compound 20A]
Result: 7.30 to 7.80

Problem: # lookup: pEC50 of CN(c1ccc(-c2cc3ccn(C)c(=O)c3cc2O)nn1)[C@H]1C[C@@H]2CC[C@H]([C@H]1F)N2C (single isomer, unassigned) [Compound 97B]
Result: 6.30 to 7.00

====

test system: MDR1; assay: Blood-brain-barrier (BBB) penetration potential via MDCK-MDR1 permeability assay; settings: dog, MDCK-MDR1, pH 7.4, MDCK-MDR1: Efflux
Documented efflux ratio at 120 min, 5 μM across a set of compounds
Answer with the value's number alone.

Example compounds with recorded efflux ratio at 120 min, 5 μM:
                                   compound  recorded_value
0  CN(c1ccc(-c2cc3ncn(C)c(=O)c3cc2O)nn1)[C@H]1C[C@@H]2CC[C@H]([C@H]1F)N2C [Compound 101B]              24
1  Cc1cc(=O)c2cc(-c3ccc(N(C)[C@H]4C[C@@H]5CC[C@H]([C@H]4F)N5C)nn3)c(O)cc2o1 [Compound 100B]               4
2  Cc1nc2cc(-c3ccc(N(C)[C@@H]4C[C@H]5CC[C@H](N5)[C@@H]4F)nn3)c(O)cc2c(=O)n1CC(F)(F)F [Compound 113A]             333

Problem: # lookup: efflux ratio at 120 min, 5 μM of Cc1nc2cc(-c3ccc(N(C)[C@@H]4C[C@H]5CC[C@H](N5)[C@@H]4F)nn3)c(O)cc2s1 [Compound 115A]
Result: 8

Problem: # lookup: efflux ratio at 120 min, 5 μM of CN(c1ccc(-c2cc3oc(C(=O)N4CCC4)cc3cc2O)nn1)[C@@H]1C[C@H]2CC[C@H](N2)[C@@H]1F [Compound 112A]
Result: 74

Problem: # lookup: efflux ratio at 120 min, 5 μM of CN(c1ccc(-c2cc3c(=O)n(C)ccc3cc2O)nn1)[C@@H]1C[C@H]2CC[C@@H]([C@@H]1F)N2C [Compound 98A]
Result: 16

Problem: # lookup: efflux ratio at 120 min, 5 μM of CN(c1ccc(-c2cc(F)c(-n3ccnn3)cc2O)nn1)[C@H]1C[C@@H]2CC[C@H]([C@H]1F)N2C [Compound 103B]
Result: 4

====

system: MDR1-MDCK cell monolayers; assay: Blood-brain-barrier (BBB) penetration potential via MDCK-MDR1 permeability assay; conditions: B-A direction
REPORTED_METRIC: MDCK-MDR1: % Recov B-A (%)
I only need the number, in %, no unit after it.

Problem: # lookup: MDCK-MDR1: % Recov B-A of CNC(=O)c1cc(O)c(-c2ccc(N(C)[C@H]3C[C@@H]4CC[C@@H](N4)[C@H]3F)nn2)cc1F [Compound 47B]
Result: 120

Problem: # lookup: MDCK-MDR1: % Recov B-A of Cc1ccc(-c2ccc(-c3ccc(N(C)[C@@H]4C[C@H]5CC[C@H](N5)[C@@H]4F)nn3)c(O)c2)nn1 (single isomer, unassigned) [Compound 25A]
Result: 99

Problem: # lookup: MDCK-MDR1: % Recov B-A of CN(c1ccc(-c2cc3ncn(CC(F)(F)F)c(=O)c3cc2O)nn1)[C@H]1C[C@@H]2CC[C@@H](N2)[C@H]1F [Compound 81B]
Result: 100

Problem: # lookup: MDCK-MDR1: % Recov B-A of CN(c1ccc(-c2ccc(-c3cnn(C)c3)cc2O)nn1)C1CC2COCC(N2)C1F (single isomer, unassigned) [Compound 80B]
Result: 87

Problem: # lookup: MDCK-MDR1: % Recov B-A of CN(c1ccc(-c2ccc(-n3ccnn3)cc2O)nn1)[C@H]1C[C@@H]2CCC[C@@H](N2)[C@H]1F [Compound 62B]
Result: 80

Problem: # lookup: MDCK-MDR1: % Recov B-A of Cc1cc(=O)c2cc(-c3ccc(N(C)[C@@H]4C[C@H]5CC[C@H](N5)[C@@H]4F)nn3)c(O)cc2o1 [Compound 50A]
Result: 92

====

tested on: MDR1; assay: Blood-brain-barrier (BBB) penetration potential via MDCK-MDR1 permeability assay; conditions: dog, MDCK-MDR1, pH 7.4, MDCK-MDR1: Efflux, efflux ratio
Param threshold (40) applies to efflux ratio at 120 min, 5 μM; output TRUE when value >= threshold, FALSE when value < threshold.

                                   compound  assigned_label
0  CN(c1ccc(-c2cc3cnn(C)c3cc2O)nn1)[C@H]1C[C@@H]2CC[C@@H](N2)[C@H]1F [Compound 76B]           FALSE
1  Cc1cc(=O)c2cc(O)c(-c3ccc(N(C)[C@@H]4C[C@H]5CC[C@H](N5)[C@@H]4F)nn3)cc2o1 [Compound 49A]            TRUE
2  CN(c1ccc(-c2cc3ncn(C)c(=O)c3cc2O)nn1)[C@@H]1C[C@H]2CC[C@H](N2)[C@@H]1F [Compound 51A]            TRUE
3  CN(c1ccc(-c2cc(F)c(-c3ccn(C)c(=O)c3)cc2O)nn1)[C@H]1C[C@@H]2CC(F)(F)[C@H](C1)N2 [Compound 22B]           FALSE
4  CN(c1ccc(-c2cc3oc(=O)n(C)c3cc2O)nn1)[C@@H]1C[C@H]2CC[C@H](N2)[C@@H]1F (single isomer, unassigned) [Compound 79A]           FALSE

Read the next record carefully.
Problem: Is efflux ratio at 120 min, 5 μM at least 40? Consider CCc1cn(-c2ccc(-c3ccc(N(C)[C@@H]4C[C@H]5CC(F)(F)[C@@H](C4)N5)nn3)c(O)c2)cn1 [Compound 18A]
Result: FALSE

====

tested on: MDR1; assay: Blood-brain-barrier (BBB) penetration potential via MDCK-MDR1 permeability assay; details: dog, MDCK-MDR1, pH 7.4, MDCK-MDR1: Efflux, efflux ratio
Binary call on efflux ratio at 120 min, 5 μM with cut-off 20: strictly below means Y, and equality or higher means N.

Problem: Strictly below 20: is that where efflux ratio at 120 min, 5 μM of CN(c1ccc(-c2cc3c(F)cn(C)c(=O)c3cc2O)nn1)[C@H]1C[C@@H]2CC[C@@H](N2)[C@H]1F [Compound 54B] sits?
Result: N

Problem: Strictly below 20: is that where efflux ratio at 120 min, 5 μM of Cc1cnc(-c2ccc(-c3ccc(N(C)[C@@H]4C[C@H]5CCC[C@H](N5)[C@@H]4F)nn3)c(O)c2)cn1 [Compound 26A] sits?
Result: N

Problem: Strictly below 20: is that where efflux ratio at 120 min, 5 μM of CNC(=O)c1ccc(-c2ccc(N(C)[C@H]3C[C@@H]4CC[C@@H](N4)[C@H]3F)nn2)c(O)c1 (single isomer, unassigned) [Compound 77B] sits?
Result: N

Problem: Strictly below 20: is that where efflux ratio at 120 min, 5 μM of CN(c1ccc(-c2ccc(-c3cnn(C(F)F)c3)cc2O)nn1)[C@H]1C[C@@H]2CCC[C@@H](N2)[C@H]1F [Compound 21B] sits?
Result: Y

Problem: Strictly below 20: is that where efflux ratio at 120 min, 5 μM of CN(c1ccc(-c2ccc(-n3nccn3)cc2O)nn1)[C@H]1C[C@@H]2CC[C@@H](N2)[C@H]1F [Compound 90B] sits?
Result: Y

Problem: Strictly below 20: is that where efflux ratio at 120 min, 5 μM of CN(c1ccc(-c2cc3cccnc3cc2O)nn1)[C@@H]1C[C@H]2CCC[C@H](N2)[C@@H]1F [Compound 41A] sits?
Result: N

Problem: Strictly below 20: is that where efflux ratio at 120 min, 5 μM of CN(c1ccc(-c2ccc(-c3cnn(C)c3)cc2O)nn1)[C@@H]1C[C@H]2CCC[C@H](N2)[C@H]1F [Compound 14A] sits?
Result: Y
